So I've got a bunch of molecules here, and I need their IC50 values.
System: HeLa
test: Antiproliferative activity against human HeLa cells incubated for 48 hrs by MTT assay
Assay type: functional, cell-based

These recorded examples may help you get a feel for the data.
>  <compoundStructureString>
COc1cccc(Nc2ccnc3cc(OCCCc4ccccc4)ccc23)c1

>  <experimentalTarget>
HeLa

>  <IC50>
2.71 µM

$$$$
>  <compoundStructureString>
COc1ccc2c(Nc3cccc(F)c3)ccnc2c1

>  <experimentalTarget>
HeLa

>  <IC50>
> 10 µM

$$$$
>  <compoundStructureString>
COc1ccc2c(Nc3cccc(O)c3)ccnc2c1

>  <experimentalTarget>
HeLa

>  <IC50>
> 10 µM

$$$$

Batch request: IC50 per item, same order as input.
1. Fc1cccc(Nc2ccnc3cc(F)ccc23)c1
2. COc1cccc(Nc2ccnc3cc(OC)ccc23)c1

Ans.
> 10 µM
> 10 µM
